z-score: recorded values
# measurement_protocol: fission yeast growth modulation, primary screen, strain 972, OD600, 24 h, no modulator (AID 1090);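 also: basal condition with compound alone and no growth modifier present; test concentration not given here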
# experimental_conditions: S. pombe 972 growth, higher = more signal, called active from +8 up or from −8 down
Calls of active or inactive are those of the source.

compound=C=C[C@@H](C)[C@H](O)c1ccc(OCCO)cc1 assay_value="-0.297 (inactive)"
compound=COc1ccc([Si](C)(C)[C@@H]2[C@@H](CCn3cc([C@H](O)c4ccccc4)nn3)O[C@]3(C(=O)N(c4ccccc4)c4ccccc43)[C@H]2C)cc1 assay_value="-0.101 (inactive)"
compound=C=C(COC)/C(=C/C[C@@H](OC(=O)c1ccncc1)c1ccccc1OCCO)c1cc(C(=O)OC)ccc1OC assay_value="-0.778 (inactive)"
compound=COCCOC(=O)N1C(=O)[C@@]2(c3cc(C#CCC(C(=O)OC)C(=O)OC)ccc31)[C@H](C(=O)NC[C@H](O)c1ccccc1)[C@H]1C(=O)O[C@H](c3ccccc3)[C@H](c3ccccc3)N1[C@@H]2c1ccc(O)cc1 assay_value="1.37 (inactive)"
compound="CN1C(=O)C2C(C1=O)C1C=C(CCCO)C2C(c2cccs2)N1Cc1cc2c(cc1Br)OCO2 (centres undefined)" assay_value="-1.25 (inactive)"

Specify measured z-score for CN(C)CCCC[C@@H]1NC(=O)[C@@H]2C[C@H](C(=O)O)[C@H](c3cccc(OCCO)c3)N2C1=O .
-0.595 (inactive)

State its z-score: CCCNC(=O)[C@@]1(C)c2ccccc2C(=O)N(Cc2ccccc2)[C@H]1c1ccc(CO)cc1
-1.08 (inactive)

Consider the compound C=CCNC(=O)[C@H]1[C@@H]2C(=O)O[C@@H](c3ccccc3)[C@@H](c3ccccc3)N2[C@@H](c2ccc(OCCO)cc2)[C@]12C(=O)N(C(=O)OCCOC)c1ccc(C#Cc3ccc(OC)cc3)cc12 . State its measured z-score.
0.927 (inactive)

Answer with the recorded z-score for the compound listed here: C=CCC(OC(C)=O)[C@@H]1[C@@H](N(Cc2ccc(-c3cccc(C(F)(F)F)c3)o2)C(=O)c2ccc(C)cc2)c2cc(OCCCO)ccc2N1C(=O)Cc1ccc(OC)cc1 (some centres undefined)
0.145 (inactive)

Indicate its recorded z-score; the compound in question is CC(CO)N1C(=O)[C@@H]2[C@H]3C(=O)OCC=C[C@H]3OC23C=CCN(c2ccc(Cl)cc2)C(=O)[C@@H]13 (some centres undefined)
-0.244 (inactive)

State, in one line, measured z-score of CN1C(=O)C2C=CC(C(O)c3ccc(F)cc3)N(NC(=O)OC(C)(C)C)C2C1=O (centres undefined)
2.11 (inactive)

Identify measured z-score corresponding to O=C1O[C@H](c2ccccc2)[C@H](c2ccccc2)N2[C@H]1[C@@H](C(=O)N1CCCCCCC1)[C@]1(C(=O)Nc3ccc(C#CC4(O)CCCCCC4)cc31)[C@H]2c1ccc(O)cc1
0.73 (inactive)

Using known records, supply z-score for CC1CC/C=C\[C@H]2OC34C=CCN(C(C)(C)C)C(=O)[C@H]3N(C(CO)C(C)C)C(=O)[C@@H]4C2C(=O)O1 (some centres undefined)
-0.429 (inactive)

Identify measured z-score associated with CCCNC(=O)[C@@]1(Sc2ccc(C)cc2)CC(=O)N(C2CCCCC2)[C@@H]1c1ccc(CO)cc1I
0.554 (inactive)
